test system: UO-31; experiment: NCI tumour cell line growth inhibition, 48 h
The source made the active and inactive calls. Cut-off read from the data, not from the text of the source: active = GI50 up to about 1.1 µM and inactive = higher.
quantity.name: GI50

> print(dat)
                                    compound  recorded.measurement
 1     Cc1cc2c(C)nn(Cc3ccccc3)c2c(C(N)=O)c1C    67.9 µM (inactive)
 2   O=C(OCCN=C1c2ccccc2CCc2ccccc21)c1ccccc1   > 100 µM (inactive)
 3  O=C(Oc1ccc(C(c2c(O)c3ccccc3oc2=O)c2c(O)c3ccccc3oc2=O)cc1)c1ccc(C(=O)c2ccccc2)cc1    17.8 µM (inactive)
 4  CC(C)Oc1c(O)c2c3c(oc(=O)n3C=CC2c2ccccc2F)c1OC(C)C (stereo unspecified)    24.4 µM (inactive)
 5      CCOC(=O)C1=C(C(C)=O)CSC(c2ccccc2)=N1    97.9 µM (inactive)
 6  COc1cc(C2C(Cl)C(=O)N2NC(=O)c2ccc(NC(C)=O)cc2)cc(Br)c1O (stereo unspecified)   > 100 µM (inactive)
 7                   Cc1occc(=O)c1O [MALTOL]   > 100 µM (inactive)
 8  COc1ccc2ccccc2c1C1NC(=O)c2ccccc2N1 (stereo unspecified)    11.3 µM (inactive)
 9  O=C1C2C3CCC(C2C(=O)N1CO)C1C2C(=O)N(CO)C(=O)C2C31 (stereo unspecified)   > 100 µM (inactive)
10     COc1ccc2c(c1)CCc1c-2[nH]c2ccc(OC)cc12   > 100 µM (inactive)
11  CC(C)OCC1CC(CC(=O)Nc2nncs2)C(=O)O1 (stereo unspecified)   > 100 µM (inactive)

* * *

Item-by-item account of GI50
test system: SK-MEL-28; assay: NCI tumour cell line growth inhibition, 48 h
Calls of active or inactive are those of the source. Rule as the data show it: active = GI50 up to about 1.1 µM and inactive = higher. Square brackets hold non-standard residues; d marks the D form. Peptide text beside a SMILES is read from it. Ac5c = NC1(C(=O)O)CCCC1
quantity.name: GI50

> print(dat)
                                    molecule  quantity.name  recorded.measurement
 1  CC1CCC2C(C)C(=O)OC2C2(C)C(=O)C=CC12 (configuration not stated)           GI50    > 10 µM (inactive)
 2       O=c1c2cc([N+](=O)[O-])ccc2sc2ccsc12           GI50   > 100 µM (inactive)
 3  NCC(=O)NC1(C(=O)O)CCCC1 (H-Gly-[Ac5c]-OH)           GI50   > 100 µM (inactive)
 4  CCOP(=O)(OCC)C(C)(CC)N/C(N)=N/C#N (configuration not stated)           GI50   > 100 µM (inactive)
 5  O=C(NN1C(=O)/C(=C/c2ccc(Cl)cc2)N=C1c1ccccc1)c1c(Cl)c(Cl)c(Cl)c(Cl)c1-c1nc2ccccc2[nH]1           GI50    20.3 µM (inactive)
 6  Oc1nc2nnc(COc3ccc(Cl)cc3Cl)n2nc1Cc1ccccc1           GI50   > 100 µM (inactive)
 7  COc1ccc(-c2c(C(C)=O)c(C)n(C3OC(CO)C(O)C(O)C3O)c(=S)c2C#N)cc1 (configuration not stated)           GI50    44.6 µM (inactive)
 8  CC1(CCC2C=CCC2)CCCNC1=S (configuration not stated)           GI50    > 10 µM (inactive)
 9  O=C1C[C@@]23CCC4(CC2CCC[C@H]3O1)OCCO4 (some centres not stated)           GI50   > 100 µM (inactive)
10  O=C(O)C1Cc2[nH]cnc2CN1 (configuration not stated)           GI50   > 100 µM (inactive)
11   COC(=O)/C=C\C(C#N)(C#N)/N=C/c1ccc(Br)s1           GI50    16.1 µM (inactive)
12  Cc1cc(C)nc(NS(=O)(=O)c2ccc(Nc3c4ccc(Cl)cc4nc4c(C(=O)Nc5ccc(S(=O)(=O)N=C(N)N)cc5)cccc34)cc2)n1           GI50    77.6 µM (inactive)
13  CC12c3ccccc3C(OC=O)(c3ccccc31)C1(C)c3ccccc3C2(OC=O)c2ccccc21           GI50   > 100 µM (inactive)
14            Cc1ccc2occ/c(=N\Nc3ccccc3)c2c1           GI50    62.2 µM (inactive)
15         Cc1ccc(C(=O)OCC(C)C)cc1/N=N/N(C)C           GI50    > 71 µM (inactive)
16   N#Cc1c(N)[nH]c(=S)c(C#N)c1-c1cccc(Cl)c1           GI50    39.6 µM (inactive)
17  Cc1ccc(C)c(NC(=O)C(=O)CC(=O)C2CCOC2=O)c1 (configuration not stated)           GI50    28.5 µM (inactive)
18  CC[C@@]12CCC(=S)N(CCSc3ccccc3)[C@@H]1c1c(n(S(=O)(=O)c3ccc(OC)cc3)c3ccccc13)CC2           GI50   > 100 µM (inactive)
19  CC(=O)c1ccc(NC(=O)/C(=N\NC(N)=O)C(C#N)CC(C)(C)C=O)cc1 (configuration not stated)           GI50   > 100 µM (inactive)
20  C=CCN(C(=O)OC(C)(C)C)[C@H](C)C(=O)N[C@@H](C)C(=O)OC           GI50   > 100 µM (inactive)
21               COC(=O)c1cccc2c1Oc1ccccc1S2           GI50    96.8 µM (inactive)
22  COc1cc(C2C(Cl)C(=O)N2NC(=O)c2ccc(NC(C)=O)cc2)cc(Br)c1O (configuration not stated)           GI50   > 100 µM (inactive)

* * *

system: HCC 2998; test: NCI tumour cell line growth inhibition, 48 h
The source made the active and inactive calls. Cut-off read from the data, not from the text of the source: active = GI50 up to about 1.1 µM and inactive = higher.
quantity.name: GI50

> print(dat)
                                    compound  recorded.measurement
 1     Cc1ccc(/C=N/NS(=O)(=O)c2ccccc2)c(C)c1   > 100 µM (inactive)
 2  CC1(CCC2C=CCC2)CCCNC1=S (stereo not given)    > 10 µM (inactive)
 3  CC12c3ccccc3C(OC=O)(c3ccccc31)C1(C)c3ccccc3C2(OC=O)c2ccccc21   > 100 µM (inactive)
 4                O=C(O)CCSC(=O)Nc1cccc(F)c1   > 100 µM (inactive)
 5  COC(=O)c1c(CC(=O)OC(C)C)cc2n(c1=O)Cc1c-2nc2ccccc2c1OC   > 100 µM (inactive)
 6      O=C(NCCc1ccccc1)[C@H]1CCCC[C@@H]1CCO   > 100 µM (inactive)
 7  O=C(Oc1ccc(C(c2c(O)c3ccccc3oc2=O)c2c(O)c3ccccc3oc2=O)cc1)c1ccc(C(=O)c2ccccc2)cc1    18.8 µM (inactive)
 8  CC1CN(c2ccc(Cl)cc2)CC(C)(C)OC(=O)O1 (stereo not given)   > 100 µM (inactive)
 9  CC(=O)Nc1ccc(/C=C(\NC(=O)c2ccccc2)C(=O)NNS(=O)(=O)c2ccc(C)cc2)cc1   > 100 µM (inactive)
10  COC(=O)[C@]1(c2ccc(N(C)C)cc2OC)C[C@@H]2CCCN(CCc3c1[nH]c1ccccc31)C2    15.3 µM (inactive)

* * *

// reported GI50 per item
system: RXF 393; experiment: NCI tumour cell line growth inhibition, 48 h
Calls of active or inactive are those of the source. No stated cut-off is given here; in the data, active = GI50 up to about 1.1 µM and inactive = higher.
quantity.name: GI50

> print(dat)
                                    compound  assay.system  recorded.measurement
 1  COc1ccc(C(=O)N=C2N(c3ccccc3)C(=N/c3ccccc3)/C(=N\c3ccccc3)N2c2ccccc2)cc1       RXF 393    2.26 µM (inactive)
 2  C/C(=N\NC(=N)N)C(CN1CCCCC1)C(c1ccccc1)c1c(O)c2ccccc2oc1=O (stereo unspecified)       RXF 393   > 100 µM (inactive)
 3  CC12c3ccccc3C(OC=O)(c3ccccc31)C1(C)c3ccccc3C2(OC=O)c2ccccc21       RXF 393   > 100 µM (inactive)
 4  CC(C)/C(Cl)=N/OC(=O)Nc1ccc(OC(F)(F)F)cc1       RXF 393    4.03 µM (inactive)
 5  O=C(CC1(O)C(=O)Nc2ccccc21)c1ccc2ccccc2c1 (stereo unspecified)       RXF 393   > 100 µM (inactive)
 6  O=C(ON=c1c2ccccc2ccc2ccccc12)c1cc([N+](=O)[O-])cc([N+](=O)[O-])c1       RXF 393   > 100 µM (inactive)
 7  N/C(=N/O)c1cn(C2OC(CO)C(O)C2O)c2ncnc(NO)c12 (stereo unspecified)       RXF 393     0.356 µM (active)
 8  Cc1ccc(C2=NN(C)COC2C(F)(F)F)cc1 (stereo unspecified)       RXF 393   > 100 µM (inactive)
 9  NS(=O)(=O)c1nnc(NC(=S)NC(=O)Nc2ccc(Cl)c(Cl)c2)s1       RXF 393    19.1 µM (inactive)
10   O=C(OCCN=C1c2ccccc2CCc2ccccc21)c1ccccc1       RXF 393   > 100 µM (inactive)
11  O=C(O)CC(O)(C(=O)O)C(O)C(=O)O (stereo unspecified)       RXF 393  > 1000 µM (inactive)
12         CSc1c(C#N)c(=O)n(N)c2[nH]nc(C)c12       RXF 393   > 100 µM (inactive)
13     C[C@@H](C(=O)O)c1ccc(-c2ccccc2)c(F)c1       RXF 393   > 100 µM (inactive)
14  O=C1c2cc3c(cc2CC12Cc1ccc4c(c1C2=O)CCC4)CCC3 (stereo unspecified)       RXF 393   > 100 µM (inactive)
15  CC1(C)OC2C(O)CN3CCS[C@H]3C2O1 (stereo partly specified)       RXF 393   > 100 µM (inactive)
16                    O=Nn1c2ccccc2c2ccccc21       RXF 393    37.7 µM (inactive)
17  O=C1/C(=C/c2cccc(Oc3ccccc3)c2)N=C(c2ccccc2)N1c1nc2ccc(Sc3ccccc3)cc2[nH]1       RXF 393    24.8 µM (inactive)
18  CCOC(=O)n1ccc2c(C(=O)OC)c(C(=O)OC)cc(/C(=C/C(=O)OC)C(=O)OC)c21       RXF 393    66.8 µM (inactive)
19  CCOC(=O)C12CCC(=O)C=C1[C@@H](C)C(=O)CC2 (stereo partly specified)       RXF 393   > 100 µM (inactive)
20  CC1(C)OC2OC(C(=O)c3ccccc3)C3OC(C)(C)OC3C2O1 (stereo unspecified)       RXF 393   > 100 µM (inactive)
21  CC1=C(C(=O)NCc2ccccc2)C(c2ccc(N(C)C)cc2)C(C(=O)NCc2ccccc2)=C(C)N1       RXF 393    11.7 µM (inactive)
